FYI, the data here is from patent US9469615B2.

# TESTED SYSTEM: hCRTH2 (Homo sapiens)
# Construct: expressed in transfected cells; host or cells: HEK (human embryonic kidney) cells expressing hCRTH2; membrane preparation
# Sequence (Q9Y5Y4 whole entry): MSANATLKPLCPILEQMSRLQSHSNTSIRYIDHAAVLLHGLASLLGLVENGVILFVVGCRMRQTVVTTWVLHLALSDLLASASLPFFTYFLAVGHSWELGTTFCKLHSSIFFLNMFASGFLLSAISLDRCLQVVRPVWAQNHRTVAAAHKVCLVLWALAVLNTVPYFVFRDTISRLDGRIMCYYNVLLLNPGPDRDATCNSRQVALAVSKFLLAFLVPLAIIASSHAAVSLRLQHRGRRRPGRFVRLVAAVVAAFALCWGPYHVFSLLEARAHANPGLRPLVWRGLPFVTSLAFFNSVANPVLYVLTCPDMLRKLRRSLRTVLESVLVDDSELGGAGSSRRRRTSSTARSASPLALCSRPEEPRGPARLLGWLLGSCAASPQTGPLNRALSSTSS
# ASSAY REMARKS: Radioligand binding assay ([3H]PGD2 competition, HEK-hCRTH2 membranes)
# REPORTED CONDITIONS: [3H]PGD2 competition, Table B
Reported Ki values for a set of compounds

Worked examples, 4 compounds total:
// lookup Ki for O=C(O)CCCCc1nc2cc(C(=O)N3CC(c4ccc(F)c(F)c4)C3)ccc2nc1-c1ccc(Cl)cc1
0.1 to 2 nM

# query: Ki of entry CC(CCc1nc2cc(C(=O)N[C@@H](C)c3ccc(F)cc3)ccc2nc1-c1ccc(F)cc1)CC(=O)O (stereo partly drawn)
2.1 to 20 nM

Recorded Ki of O=C(O)CCCCc1nc2cc(C(=O)N3CC(Oc4ccccn4)C3)ccc2nc1-c1ccc(Cl)cc1 , please.
2.1 to 20 nM

Endpoint output: Ki of C[C@@H](NC(=O)c1ccc2nc(-c3ccc(Cl)cc3)c(CCCCC(=O)O)nc2c1)c1ccc(F)cn1 . Value?
0.1 to 2 nM

More entries:
What does the record list as Ki for O=C(O)CCCCc1nc2cc(C(=O)N[C@H]3COc4ccccc43)ccc2nc1-c1ccc(Cl)cc1 [compound 580] ?
0.1 to 2 nM

Recorded Ki for CC(CCCc1nc2cc(C(=O)N[C@H](C)c3ccc(F)cc3)ccc2nc1-c1ccccc1)C(=O)O (stereo partly drawn) , please?
2.1 to 20 nM

Quick one: Ki for O=C(O)CCCCc1nc2cc(C(=O)N3CCCN(Cc4ccccc4)CC3)ccc2nc1-c1ccc(Cl)cc1 ?
2.1 to 20 nM

Entry under review: O=C(O)CCCCc1nc2cc(C(=O)N3CCc4cc(F)ccc4C3)ccc2nc1-c1ccc(Cl)cc1 . Reported Ki?
2.1 to 20 nM

Can you share its Ki? I mean this compound: O=C(O)CCCCc1nc2cc(C(=O)N3CCC4(CCCc5ccccc54)C3)ccc2nc1-c1ccc(Cl)cc1 (stereo not drawn) [compound 565]
0.1 to 2 nM

Data request, read-out Ki, for CN(Cc1cccnc1)C(=O)c1ccc2nc(-c3ccc(Cl)cc3)c(CCCCC(=O)O)nc2c1
2.1 to 20 nM

Which Ki is reported for this compound? C[C@H](NC(=O)c1ccc2nc(-c3ccc(Cl)cc3)c(CC3CCC(C(=O)O)C3)nc2c1)c1ccc(F)cc1 (stereo partly drawn)
2.1 to 20 nM

Which Ki is listed for Cc1cc(N2CCN(C(=O)c3ccc4nc(-c5ccc(Cl)cc5)c(CCCCC(=O)O)nc4c3)CC2)cc(C)n1 ?
201 to 700 nM

Suppose we examine the compound O=C(O)CCCCc1nc2cc(C(=O)N3CC(c4nc(-c5ccncc5)no4)C3)ccc2nc1-c1ccc(Cl)cc1 ; what Ki value has been reported?
2.1 to 20 nM

Endpoint output: Ki of COc1ccc(N2CCN(C(=O)c3ccc4nc(-c5ccc(F)cc5)c(CCCCC(=O)O)nc4c3)CC2)cc1 . Value?
2.1 to 20 nM

Reported Ki, compound O=C(N[C@@H]1CCc2cc(F)ccc21)c1ccc2nc(-c3ccccc3)c(CCCC(F)(F)C(=O)O)nc2c1 : ____
2.1 to 20 nM

* * *

Consider the following compounds and their measured Ki readings.
# TESTED SYSTEM: hCRTH2 (Homo sapiens)
# Construct: expressed in transfected cells; host or cells: HEK (human embryonic kidney) cells expressing hCRTH2; membrane preparation
# ASSAY REMARKS: Radioligand binding assay ([3H]PGD2 competition, HEK-hCRTH2 membranes)
# REPORTED CONDITIONS: [3H]PGD2 competition, Table B

Bench note: what Ki did O=C(O)CCCCc1nc2cc(C(=O)N[C@@H]3COc4cc(F)ccc43)ccc2nc1-c1ccc(Cl)cc1 show?
2.1 to 20 nM

Would you kindly share the measured Ki for O=C(O)Cc1cc(F)cc(CCc2nc3cc(C(=O)N4CC(c5ccc(F)c(F)c5)C4)ccc3nc2-c2ccc(Cl)cc2)c1 ?
2.1 to 20 nM

Which Ki is listed for O=C(N[C@@H]1CCc2cc(F)ccc21)c1ccc2nc(-c3ccc(F)cc3)c(CCCC(F)(F)C(=O)O)nc2c1 ?
20.1 to 200 nM

// switching to the query compound
# query: Ki of entry O=C(N[C@@H]1CCCc2cc(Cl)ccc21)c1ccc2nc(-c3ccc(F)cc3)c(CCCC(F)(F)C(=O)O)nc2c1
2.1 to 20 nM
